Source of measurements: patent US20220177587A1

# assayed.target: human PD-L1 (human) (UniProt Q9NZQ7)
# Sequence (Q9NZQ7 19-290): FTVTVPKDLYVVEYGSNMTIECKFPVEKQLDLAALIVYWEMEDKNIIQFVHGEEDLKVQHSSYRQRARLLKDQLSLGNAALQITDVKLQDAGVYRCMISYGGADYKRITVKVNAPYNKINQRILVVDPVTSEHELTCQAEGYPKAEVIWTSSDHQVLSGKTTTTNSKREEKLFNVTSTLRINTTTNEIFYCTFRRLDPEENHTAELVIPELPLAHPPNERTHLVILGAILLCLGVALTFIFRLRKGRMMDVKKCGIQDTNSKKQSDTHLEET
# test.description: flow cytometry, Expi293F cells transfected with PD-L1
Listed here are binders together with their documented MFI.

>  <binder>
CD80 A91G/F92L/F108L/I118V/T120S ECD-Fc (Fc fusion) VIHVTKEVKEVATLSCGHNVSVEELAQTRIYWQKEKKMVLTMMSGDMNIWPEYKNRTIFDITNNLSIVILALRPSDEGTYECVVLKYEKDGLKREHLAEVTLSVKADLPTPSISDFEVPSSNIRRIICSTSGGFPEPHLSWLENGEELNAINTTVSQDPETELYAVSSKLDFNMTTNHSFMCLIKYGHLRVNQTFNWNTTKQEHFPDN

>  <MFI>
16 MFI

$$$$
>  <binder>
CD80 K36G/K37Q/M38I/L40M ECD-Fc (Fc fusion) VIHVTKEVKEVATLSCGHNVSVEELAQTRIYWQKEGQIVMTMMSGDMNIWPEYKNRTIFDITNNLSIVILALRPSDEGTYECVVLKYEKDAFKREHLAEVTLSVKADFPTPSISDFEIPTSNIRRIICSTSGGFPEPHLSWLENGEELNAINTTVSQDPETELYAVSSKLDFNMTTNHSFMCLIKYGHLRVNQTFNWNTTKQEHFPDN

>  <MFI>
959 MFI

$$$$
>  <binder>
CD80 L70Q/A91G/T110A/I118V/T120S/T130A ECD-Fc (Fc fusion) VIHVTKEVKEVATLSCGHNVSVEELAQTRIYWQKEKKMVLTMMSGDMNIWPEYKNRTIFDITNNLSIVIQALRPSDEGTYECVVLKYEKDGFKREHLAEVTLSVKADFPAPSISDFEVPSSNIRRIICSASGGFPEPHLSWLENGEELNAINTTVSQDPETELYAVSSKLDFNMTTNHSFMCLIKYGHLRVNQTFNWNTTKQEHFPDN

>  <MFI>
5 MFI

$$$$
